Values compiled from ChEMBL document CHEMBL4373744.

# System: Staphylococcus aureus
# test-summary: microbe, parasite or virus in culture
# condition: ATCC 6538
# Description: Antimicrobial activity against methicillin-sensitive Staphylococcus aureus ATCC 6538 by broth liquid microdilution method
assay-metric: MBC
Dear colleague, please send the value followed by its unit.

Below: 4 compounds and their reported MBC.
- smiles-code: "C/C(=N\\NC(=N)N)c1sc(-c2ccc(C#CCCN3CC(O)C3)cc2)nc1C"
  val: "4 µg/mL"
- smiles-code: "C/C(=N\\NC(=N)N)c1sc(-c2ccc(C#CCCN3CCSC3)cc2)nc1C"
  val: "32 µg/mL"
- smiles-code: "CN[C@H](CC(C)C)C(=O)N[C@H]1C(=O)N[C@@H](CC(N)=O)C(=O)N[C@H]2C(=O)N[C@H]3C(=O)N[C@H](C(=O)N[C@H](C(=O)O)c4cc(O)cc(O)c4-c4cc3ccc4O)[C@H](O)c3ccc(c(Cl)c3)Oc3cc2cc(c3O[C@@H]2O[C@H](CO)[C@@H](O)[C@H](O)[C@H]2O[C@H]2C[C@](C)(N)[C@H](O)[C@H](C)O2)Oc2ccc(cc2Cl)[C@H]1O"
  val: "2 µg/mL"
- smiles-code: "C/C(=N\\NC(=N)N)c1sc(-c2ccc(C#CCCn3ccnc3)cc2)nc1C"
  val: "16 µg/mL"

Prompt: Item `CC(=O)NC[C@H]1CN(c2ccc(N3CCOCC3)c(F)c2)C(=O)O1` has what recorded MBC?
Completion: 16 µg/mL

Prompt: Item `C/C(=N\NC(=N)N)c1sc(-c2ccc(C#CCCN3CCC3)cc2)nc1C` has what recorded MBC?
Completion: 8 µg/mL

====

# test-summary: Aqueous solubility of compound in pH 6.8 phosphate buffer
# Assay type: physicochemical
assay-metric: solubility (µM)
Expressed in µM, but write only the number.

Prompt: Item `C/C(=N\NC(=N)N)c1sc(-c2ccc(C#CCCN3CCC3)cc2)nc1C` has what recorded solubility?
Completion: 500

====

# Tested on: Escherichia coli
# test-summary: Antimicrobial activity against Escherichia coli JW55031 harboring deltatolC mutant by broth liquid microdilution method
# Format: functional
assay-metric: MIC

Prompt: Item C/C(=N\NC(=N)N)c1sc(-c2ccc(OCCCCN3CCCC(C)C3)cc2)nc1C (stereo not given) has what recorded MIC?
Completion: > 64 µg/mL

Prompt: Item `C/C(=N\NC(=N)N)c1sc(-c2ccc(OCCCN3CCSC3)cc2)nc1C` has what recorded MIC?
Completion: 32 µg/mL

Prompt: Item `C/C(=N\NC(=N)N)c1sc(-c2ccc(OCCCCCN3CCCC3)cc2)nc1C` has what recorded MIC?
Completion: > 64 µg/mL

Prompt: Item `C/C(=N\NC(=N)N)c1sc(-c2ccc(OCCCn3ccnc3)cc2)nc1C` has what recorded MIC?
Completion: > 64 µg/mL

Prompt: Item `C/C(=N\NC(=N)N)c1sc(-c2ccc(OCCCCCN3CCCCCC3)cc2)nc1C` has what recorded MIC?
Completion: > 64 µg/mL

Prompt: Item `C/C(=N\NC(=N)N)c1sc(-c2ccc(C#CCCN3CCOCC3)cc2)nc1C` has what recorded MIC?
Completion: 64 µg/mL

Prompt: Item `C/C(=N\NC(=N)N)c1sc(-c2ccc(OCCCCN3CCSC3)cc2)nc1C` has what recorded MIC?
Completion: > 64 µg/mL

Prompt: Item `C/C(=N\NC(=N)N)c1sc(-c2ccc(OCCCCN3CCSCC3)cc2)nc1C` has what recorded MIC?
Completion: > 64 µg/mL

Prompt: Item `C/C(=N\NC(=N)N)c1sc(-c2ccc(OCCCN3CCOCC3)cc2)nc1C` has what recorded MIC?
Completion: > 64 µg/mL

Prompt: Item `C/C(=N\NC(=N)N)c1sc(-c2ccc(C#CCCN3CCCC3)cc2)nc1C` has what recorded MIC?
Completion: > 64 µg/mL
